# Test system: SK-OV-3 ovarian
# assay-text: NCI tumour cell line growth inhibition, 48 h
# TGI annotations

| molecule | system | TGI |
| --- | --- | --- |
| C(=NCCN1CCOCC1)=NC1CCCCC1 | SK-OV-3 ovarian | > 100 µM |
| CC(C)C(CCl)NC(=O)c1cccc(C(=O)N[C@H](CCl)C(C)C)n1 (stereo in doubt) | SK-OV-3 ovarian | > 100 µM |
| BrC1=C(Br)C2(SCCS2)[C@H]2C[C@@H]1c1ccccc12 | SK-OV-3 ovarian | > 100 µM |
| O=[N+]([O-])c1ccc2[nH]c(=S)[nH]c(=S)c2c1 | SK-OV-3 ovarian | > 100 µM |
| Cc1cc(C)c2c(n1)sc1c(Nc3ccc(Cl)cc3)ncnc12 | SK-OV-3 ovarian | > 100 µM |
| Nc1nn2cc(F)cnc2c1C(=O)Nc1cncc(F)c1N1CCC(C(=O)N2CCN(C3COC3)CC2)CC1 | SK-OV-3 ovarian | 6.02 µM |
| Cn1c(=O)c2c(ncn2CCNC(CO)C(O)c2ccc([N+](=O)[O-])cc2)n(C)c1=O (stereo not given) | SK-OV-3 ovarian | > 100 µM |
| Cn1cc(C2=C(c3ccc(N)cc3)C(=O)NC2=O)c2ccccc21 | SK-OV-3 ovarian | > 25 µM |
| CC(=O)Nc1ccc(S(=O)(=O)N2C(=O)CCC2C(=O)Nc2ccc(Br)cc2)cc1 (stereo not given) | SK-OV-3 ovarian | 16.1 µM |
| Cc1ccc(-c2c(C#N)c(-c3ccc(C)cc3)n(NS(=O)(=O)c3ccccc3)c(=O)c2C#N)cc1 | SK-OV-3 ovarian | > 100 µM |

====

# System: NCI-H23 lung
# assay-text: NCI tumour cell line growth inhibition, 48 h

| molecule | system | TGI |
| --- | --- | --- |
| O=S(=O)(O)CCCc1cccc2ccccc12 | NCI-H23 lung | > 100 µM |
| COC(=O)/C=C(\C(=O)OC)C1C(=O)Oc2c(C)c(=O)c3ccccc3n21 (stereo unspecified) | NCI-H23 lung | > 100 µM |
| COc1cccc(CCNC(=O)Cc2ccccc2CCO)c1 | NCI-H23 lung | > 100 µM |
| Oc1ccc(Nc2ncnc3c2sc2ncccc23)cc1 | NCI-H23 lung | 9.53 µM |
| O=P(O)(O)CCP(=O)(O)O | NCI-H23 lung | > 100 µM |
| CCN(CC)CCNc1ccc2nnn3c4ccc(OCCN(CC)CC)cc4c(=O)c1c23 | NCI-H23 lung | > 100 µM |
| CO/N=C(\C(=O)OC(=NC1CCCCC1)NC1CCCCC1)c1csc(NC(c2ccccc2)(c2ccccc2)c2ccccc2)n1 | NCI-H23 lung | > 10 µM |
| CC1CC(OP(=O)(OCc2ccccc2)OCc2ccccc2)[C@@H](OCc2ccccc2)C(OCc2ccccc2)C1OCc1ccccc1 (stereo partly specified) | NCI-H23 lung | > 100 µM |
| O=C(O)COc1ccc2c(=O)c3sc4c(=O)c5ccccc5c(=O)c4c3c(=O)c2c1 | NCI-H23 lung | 8.57 µM |
| COc1cc(C2c3cc4c(cc3OC(N3CCCCC3)C2C)OCO4)cc(OC)c1O (stereo unspecified) | NCI-H23 lung | > 66.9 µM |
| CC(C)NC(=O)OCc1c(COC(=O)NC(C)C)c(-c2cc[n+](COC(=O)C3CC3)cc2)n2c1CCC2 | NCI-H23 lung | > 100 µM |
| O=C1C2SC34c5c2c2ccccc2n5CCC3CCCN14 (stereo unspecified) | NCI-H23 lung | > 100 µM |
| O=C1Nc2cccc(Cl)c2/C1=C\c1c(Cl)nc2n1CCS2 | NCI-H23 lung | > 100 µM |
| CC/C=C\C[C@H](O)C/C=C1/C(=O)C(Cl)=C[C@@H]1C/C=C\CCCC(=O)OC | NCI-H23 lung | 1.97 µM |
| O=[N+]([O-])c1cccc(C2=NN(c3ccccc3)C[N+](c3ccc(Br)cc3)=N2)c1 | NCI-H23 lung | > 100 µM |
| O=C(N/N=C(\c1ccccc1)c1ccccn1)NC1CCCCC1 | NCI-H23 lung | > 100 µM |
| CCCCOC(=O)CNC(=O)OC/C=C/C#CC#C/C=C/COC(=O)NCC(=O)OCCCC | NCI-H23 lung | > 100 µM |
| O=c1[nH]nnc2c1sc1ncccc12 | NCI-H23 lung | > 100 µM |
| COC[C@@H](N=CC(C)(C)C)C(C)C | NCI-H23 lung | > 100 µM |
| N#CC1C(=S)NC(c2ccccc2)=CC12CCCCC2 (stereo unspecified) | NCI-H23 lung | 36.9 µM |
| C=CCn1c(N)c(C#N)c(C#N)c1-c1ccccc1 | NCI-H23 lung | > 100 µM |

====

# System: HOP-62 NSCLC
# assay-text: NCI tumour cell line growth inhibition, 48 h
# GI50 annotations

| compound | system | GI50 |
| --- | --- | --- |
| O=C(O)COc1ccc2c(=O)c3sc4c(=O)c5ccccc5c(=O)c4c3c(=O)c2c1 | HOP-62 NSCLC | 8.03 µM |
| NC(=S)N/N=C/C(=O)O | HOP-62 NSCLC | > 100 µM |
| CCN1CCN(C(=O)[C@@]2(C)CC[C@]3(C)CC[C@]4(C)C(=CC(=O)[C@@H]5[C@@]6(C)CC[C@H](OC7C[C@@H](O)[C@@H](O)C(C)O7)C(C)(C)[C@@H]6CC[C@]54C)[C@@H]3C2)CC1 (stereo not given in full) | HOP-62 NSCLC | 2.39 µM |
| COc1ccccc1/C=N\N/C(N)=N\N=C\c1ccccc1OC | HOP-62 NSCLC | 0.586 µM |
| COC(=O)COc1ccccc1/C=C1\N=C(c2ccccc2)N(c2cc(C(F)(F)F)ccc2Cl)C1=O | HOP-62 NSCLC | 45 µM |
| Cn1c(I)c(C#CCO[Si](C)(C)C(C)(C)C)c(=O)[nH]c1=O | HOP-62 NSCLC | > 44.1 µM |
| N#Cc1c(NC(=O)NCc2ccccc2)sc2c1CCCCC2 | HOP-62 NSCLC | 0.706 µM |
| COc1cc(-c2oc(=O)ccc2C#Cc2ccccn2)cc(OC)c1OC | HOP-62 NSCLC | 2.42 µM |
| O=C(Nc1ccc(Nc2ccncc2)cc1)c1ccc([N+](=O)[O-])cc1 | HOP-62 NSCLC | 13.7 µM |
| COc1ccc(/C=C\[N+](=O)[O-])cc1OC | HOP-62 NSCLC | 12 µM |
| CSC1=Nc2c(c(C)c(C)n2COC(CO)CO)C2=NC(=O)C(C)N12 (stereo not given) | HOP-62 NSCLC | > 100 µM |
| c1ccc(-c2nnc(-c3ccccn3)s2)nc1 | HOP-62 NSCLC | > 100 µM |
| Cc1ccc(SC2c3ccc(C)cc3Oc3nc(N)c(C#N)c(N)c32)cc1 (stereo not given) | HOP-62 NSCLC | 1.79 µM |
| COc1ccc(Sc2[nH]c(C(C)=O)c3ccccc23)cc1 | HOP-62 NSCLC | 12.7 µM |
| C/C=C(\C)C(=O)O[C@H]1C=CC(=O)O[C@H]1CCC(=O)[C@H](C)O | HOP-62 NSCLC | 22.5 µM |

====

# TGI annotations
# System: SNB-75 CNS
# assay-text: NCI tumour cell line growth inhibition, 48 h
property-measured: TGI

| compound | value |
| --- | --- |
| CC(C)Cc1ccc(C(C)C(=O)N2CCN(/C=C/c3ccccc3)CC2)cc1 (stereo not drawn) | 29.1 µM |
| CC1(C)N=C(N)N=C(N)N1c1ccc(CCCCc2ccc(Cl)cc2S(=O)(=O)F)c(Cl)c1 | 23 µM |
| Cc1ccc(-n2cnc(C(=N)C#N)c2N)cc1 | > 100 µM |
| CO/N=C(\C(=O)OC(=NC1CCCCC1)NC1CCCCC1)c1csc(NC(c2ccccc2)(c2ccccc2)c2ccccc2)n1 | > 10 µM |
| COc1cc(Nc2ncccc2C(=O)NCc2cn(Cc3cccc(Oc4ccccc4)c3)nn2)cc(OC)c1 | > 100 µM |
| Cc1cc(Cl)cc(OCCn2cc(F)cn2)c1-c1nc(N)nc2c1CN(C(=O)NCC(C)(F)F)C2 | > 100 µM |
| CCOC(=O)NC(Nc1ccc(C)cc1)(C(F)(F)F)C(F)(F)F | > 100 µM |
| C[n+]1c2ccc(Cl)cc2nc2cc(-c3ccccc3)ccc21 | 80.1 µM |
| O=[N+]([O-])C[C@@]12O[C@]3(O)C4C5CC(C6C5C3C61)C42 (stereo partly drawn) | > 100 µM |
| Nc1nc(Cl)cc(NCCCCCCCCNc2cc(Cl)nc(N)n2)n1 | 74.4 µM |
| CC(C)CCC1CC2C(=O)N(c3ccccc3)C(=O)C2c2[nH]c3ccccc3c21 (stereo not drawn) | 9.25 µM |
| O=S(=O)(O)CCCc1cccc2ccccc12 | > 100 µM |
| Cc1ccc(C2SCC(=O)N2c2ccc(-n3c(-c4ccccc4)nc4ccccc4c3=O)cc2)cc1 (stereo not drawn) | 90.5 µM |
| CCN(CC)CCC(CNc1ccnc2cc(Cl)ccc12)c1ccc(Cl)cc1 (stereo not drawn) | 2.64 µM |
| CC(=O)CCn1ncc(Cl)c(Cl)c1=O | 72 µM |
| CCC(=O)CC(=O)CCC(=O)Nc1cc(C)ccc1C | > 100 µM |
| CCO/C(O)=C(/C(=N)N1CCOCC1)C(=O)Nc1ccc(F)cc1 | > 100 µM |
| CNCc1ccccc1-c1csc([C@@H](C)Nc2nc(C)nc3cc(OC)c(OC)cc23)c1 | 2.65 µM |
| CCOC(=O)c1cnc2c(ccc3[nH]n(C)nc32)c1=O | > 100 µM |
| Cc1ccc(S(=O)(=O)c2[nH]cc(/C(=C\C3CCCCC3)[N+](=O)[O-])c2C2CCCCC2)cc1 | 5.81 µM |
| O=C1Nc2cccc(Cl)c2/C1=C\c1c(Cl)nc2n1CCS2 | > 100 µM |
| CC1(C)/C(=N\NC(N)=O)C2CCC1C2 (stereo not drawn) | > 100 µM |
| N.N.N.N.O=C([O-])CCl.O=C([O-])CCl.[Co+3].[O-][Cl+3]([O-])([O-])[O-] | > 100 µM |
| C=C1C(=O)OC2CC(C)C(C(CC(C)=O)OC(C)=O)=CCC12 (stereo not drawn) | 54.2 µM |
| Nc1ccc2c(c1)C(=O)N1CCC[C@H]1C(=O)N2 | > 100 µM |
| CN(C)CCNC(=O)c1cccc2ccc(-c3ccc(O)cc3)nc12 | 11.7 µM |
| COc1cc(C2c3cc4c(cc3OC(N3CCCCC3)C2C)OCO4)cc(OC)c1O (stereo not drawn) | 13.7 µM |
| C/C=C/C(CC(O)(C(F)(F)F)C(F)(F)F)=N/NC(N)=S | > 10 µM |
| CCOC(=O)CCC(NC(=O)Cc1ccc(Nc2nc3cc(F)c(F)cc3nc2C(=O)OCC)cc1)C(=O)OCC (stereo not drawn) | 77.2 µM |
| O=C(Nc1ccc(Br)cc1F)c1cc(F)ccc1O | 2.11 µM |
| COc1cc(OC)c2nc(C)c(CCCl)c(Cl)c2c1 | > 100 µM |
| CCN(CC)CCCN1CCc2c([nH]c3ccccc23)C1c1cccnc1 (stereo not drawn) | > 100 µM |
| N#Cc1n[nH]n(-c2ccc(Br)cc2)c1=O | > 100 µM |
| CCOc1ncn(-c2ccc(NC(=S)Nc3ncccn3)cc2)n1 | > 100 µM |
| O=C(N/N=C(\c1ccccc1)c1ccccn1)NC1CCCCC1 | > 100 µM |
| O=c1cc[nH]c(=O)[nH]1 | > 953 µM |
| CN1C(=O)c2ccccc2OC12C=Cc1c(ccc3ccccc13)O2 (stereo not drawn) | 33.1 µM |
| CO[C@@]12C[C@@H](C)C3=CCC(C)=C3CC1=C(C)C(=O)O2 | > 100 µM |
| CCN1CCN(C(=O)[C@@]2(C)CC[C@]3(C)CC[C@]4(C)C(=CC(=O)[C@@H]5[C@@]6(C)CC[C@H](OC7C[C@@H](O)[C@@H](O)C(C)O7)C(C)(C)[C@@H]6CC[C@]54C)[C@@H]3C2)CC1 (stereo partly drawn) | 12.8 µM |
| NC(=S)N/N=C(\CC1OC(=O)c2ccccc21)c1ccc(Cl)cc1 (stereo not drawn) | > 100 µM |
| COc1cc(OC)cc(Oc2nc3ccccc3nc2C(F)(F)F)c1 | > 100 µM |
| CCCCC#CC1=C(Br)C(=O)OC1 | > 100 µM |
| N#C[C@H](c1ccccn1)c1nc2ccccc2nc1Cl | > 100 µM |
